Reported Property: melting point

Below, 3 compounds whose answers are already recorded.
Cc1cccc(-c2nc(N)sc2-c2ccncc2)c1 [Reference Example 23-60] ... 255 to 258 °C
CC(=O)Nc1nc(-c2ccccc2)c(-c2ccncc2)s1 [Reference Example 23-71] ... 294 to 297 °C
Cc1cc(C)cc(-c2nc(NC(=O)c3cccc(C(=O)O)c3)sc2-c2ccncc2)c1 [Reference Example 23-342] ... 350 to 353 °C

Proceed to the following item.
Documented melting point of CNc1nc(-c2ccc(OC)cc2)c(-c2ccncc2)s1 [Reference Example 13-16] : 177 to 178 °C
